Provenance of the data: PubChem BioAssay (NCI)

# System: HL-60(TB) leukemia
# protocolText: NCI tumour cell line growth inhibition, 48 h
Documented TGI across a set of compounds

compound: COC(=O)C1CC2CCC1(O[Si](C(C)C)(C(C)C)C(C)C)C(O)C2 (stereo unspecified)
measurementName: TGI
result: > 100 µM
//
compound: N.N.N.N.[Co+3].[N-]=[N+]=[N-].[N-]=[N+]=[N-].[N-]=[N+]=[N-]
measurementName: TGI
result: > 100 µM
//
compound: O=C1CSC(=S)N1
measurementName: TGI
result: > 100 µM

Give its TGI value. Item: COc1ccc(CCCCl)c(C2=NCCc3cc(OC)c(OC)cc32)c1
> 100 µM

And the next one, CCCCCCCCNc1cc2c3c(c1)CCCN3CCC2 ?
1.85 µM

And the next one, O=C(Nc1ccc([As](=O)(O)O)cc1)Nc1cccc(Cl)c1Cl ?
> 100 µM

* * *

# Test system: HS 578T breast
# protocolText: NCI tumour cell line growth inhibition, 48 h
Where a SMILES comes first, the peptide text is derived from it. [ ]: non-standard residue; d: D form. pGlu = O=C1CC[CH](C(=O)O)N1
measurementName: TGI

Previously resolved entries follow.
compound: O=NN1C(c2ccccc2)CC(=NO)CC1c1ccccc1 (stereo not drawn)
result: > 100 µM
--
compound: O=C1/C(=c2\s/c(=C\c3ccccc3)c(=O)n2-c2ccccc2)SC(=S)N1c1ccccc1
result: > 100 µM
--
compound: C[C@]12C[C@H](CCCCCCNCCOC(=O)NCCCc3ccc(N(CCCl)CCCl)cc3)C3=C4CCC(=O)C=C4CCC3C1CC[C@@H]2O (stereo partly drawn)
result: 4.61 µM
--
compound: CN1CCN(C(=S)N(C(=O)c2ccc(Cl)cc2)c2ccccc2)CC1
result: > 100 µM
--
compound: CCNC(=O)C1CCCN1C(=O)C(CCCN=C(N)N)NC(=O)C(CC(C)C)NC(=O)C(CC(C)C)NC(=O)C(Cc1ccc(O)cc1)NC(=O)C(CO)NC(=O)C(Cc1c[nH]c2ccccc12)NC(=O)C(Cc1cnc[nH]1)NC(=O)C1CCC(=O)N1 (stereo not drawn) ([pGlu]HWSYLLRP-NHEt; configuration not given here)
result: > 100 µM
--
compound: C/C(=N\NC(=S)N1CC2CCC(CC2)C1)c1nccs1
result: 38.6 µM

Give its TGI value. Item: CCOC(=O)NC(Nc1ncccn1)(C(=O)OCC)C(F)(F)F (stereo not drawn)
> 100 µM

And the next one, CCN1CCC(O)(c2ccc(Oc3ccccc3)cc2)C(C(=O)c2ccc(Oc3ccccc3)cc2)C1 (stereo not drawn) ?
78.1 µM

And the next one, O=C1Nc2ccccc2C1=Nc1cccc2ncccc12 ?
> 100 µM

And the next one, COC12C=C/C(=C(/C(=O)OCc3cncnc3)C(=O)CCCCCCCCC3(OC)C=C/C(=C(/C(=O)OCc4cncnc4)C(=O)CCCCCCCC1)O3)O2 ?
6.24 µM

And the next one, CCOC(=O)c1nnsc1NC(=O)Nc1ccc(Cc2ccc(NC(=O)Nc3snnc3C(=O)OCC)cc2)cc1 ?
> 100 µM

And the next one, C[C@@]1(C(=O)O)CCC[C@]2(C)C1CC[C@@]13CC(=O)[C@@](CO)(CC[C@]12O)C3 (stereo partly drawn) ?
> 100 µM

And the next one, Cc1ccc(Cc2n[nH]c(=O)n2Nc2ccccc2)cc1 ?
> 100 µM

And the next one, O=C(c1ccccc1)c1ccccc1-c1ccccc1 ?
10.2 µM

And the next one, O=C1C(Cl)=C(Nc2cccc(Cl)c2)C(=O)N1Cc1ccc(Cl)cc1 ?
11.1 µM

And the next one, OCCOCCN1CCN(CCCN2c3ccccc3Sc3ccc(C(F)(F)F)cc32)CC1 ?
38.9 µM

And the next one, CC[C@@]1(O)C(=O)OCc2c1cc1n(c2=O)Cc2c-1nc1ccccc1c2/C=N\NC(=O)C(N)CO (stereo partly drawn) ?
> 100 µM

And the next one, O=C(Oc1cccc(F)c1OC(=O)c1cccc(O)c1)c1cccc(O)c1 ?
> 100 µM
